Origin of values: patent US20220296595A1

IC50 by entry:
Biological target: CDK6/CyclinD3 (Homo sapiens)
Construct: purchased Carna 04-107
Assay: Assay for inhibition of CDK6/CyclinD3 (Caliper microfluidic kinase assay)
Assay type: biochemical
Conditions: CDK6/CyclinD3, 300 μM ATP

| compound | IC50 |
| --- | --- |
| CC(C)n1cnc2c1CN(c1ccnc(Nc3ccc(N4CCC(N(C)C)CC4=O)cn3)n1)CC2 (stereo not shown) | 100 to 1000 nM |
| COc1nc(-c2nc(Nc3ccc(N4CCN(C5CCNCC5)CC4=O)cn3)ncc2F)cc2c1nc(C)n2C(C)C | < 10 nM |
| CC(C)c1cnn2ccc(-c3nc(Nc4ccc(N5CCOCC5)cn4)ncc3F)cc12 | 10 to 100 nM |
| COc1nc(-c2ccnc(Nc3ccc(N4CCC(C)(N)C4)cn3)n2)cc2c1ncn2C(C)C (stereo not shown) | 10 to 100 nM |
| CC(C)c1cnn2ccc(-c3ccnc(Nc4ccc(N5CCCNCC5=O)cn4)n3)cc12 | 10 to 100 nM |
| CCN1CCN(Cc2ccc(Nc3ncc(F)c(-c4cn5c(C(C)C)cnc5c(OC)n4)n3)nc2)CC1 [Synthetic Example 60] | 100 to 1000 nM |

COc1nc(-c2nc(Nc3ccc(N4CCNCC4=O)cn3)ncc2F)cc2c1nc(C)n2C(C)C has a reported IC50 of 10 to 100 nM

Reported IC50 for COc1nc(-c2ccnc(Nc3ccc(N4CCNCC4=O)cc3F)n2)cc2c1ncn2C(C)C was 10 to 100 nM

Recorded IC50 (compound CC(C)c1cnn2ccc(-c3ccnc(Nc4ccc(C(=O)N5CCC5)cc4)n3)cc12 ): 10 to 100 nM

Reported IC50 for COc1nc(-c2nc(Nc3ccc(N4CCN(CCS(C)(=O)=O)CC4=O)cn3)ncc2F)cc2c1nc(C)n2C(C)C [Synthetic Example 121] was 10 to 100 nM

In plain terms, CC(C)c1cnn2cc(-c3ccnc(Nc4ccc(N5CCNCCC5=O)cn4)n3)ccc12 has a documented IC50 of 10 to 100 nM

Per the records, this compound ( CCN1CCN(Cc2cccc(Nc3ncc(F)c(-c4ccn5ncc(C(C)C)c5c4)n3)n2)CC1 ) has IC50 equal to > 1000 nM

Entry under test: COc1nc(-c2nc(Nc3ccc(N4CCN(CCF)CC4=O)cn3)ncc2F)cc2c1ncn2C(C)C . Its IC50 was 10 to 100 nM

Consider CC(C)c1cnn2ccc(-c3nc(Nc4ccc(CN5CCN6CCCC6C5)cn4)ncc3F)cc12 (stereo not shown) . Its measured IC50 is 100 to 1000 nM

What the record says about CC(C)n1cnc2c(F)nc(-c3ccnc(Nc4ccc(N5CCCNC5=O)cc4)n3)cc21 : IC50 is < 10 nM

Reported IC50 for CC(C)c1cnn2ccc(-c3ccnc(Nc4ccc(N5CCOCC5=O)cc4F)n3)cc12 was 10 to 100 nM

---

Target: CDK6/CyclinD3 (Homo sapiens, UniProt Q00534)
Construct: purchased Carna 04-107
Sequence (Q00534 whole entry): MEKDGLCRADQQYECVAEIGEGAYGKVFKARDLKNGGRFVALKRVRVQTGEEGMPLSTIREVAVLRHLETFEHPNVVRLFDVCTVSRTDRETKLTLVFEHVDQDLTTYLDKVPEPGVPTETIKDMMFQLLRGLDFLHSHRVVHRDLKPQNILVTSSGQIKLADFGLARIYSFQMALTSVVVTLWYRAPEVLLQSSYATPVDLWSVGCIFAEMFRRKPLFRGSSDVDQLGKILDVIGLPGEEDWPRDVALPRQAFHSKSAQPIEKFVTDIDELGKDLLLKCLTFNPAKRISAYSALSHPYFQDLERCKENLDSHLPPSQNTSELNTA
Sequence (P30281 whole entry partner): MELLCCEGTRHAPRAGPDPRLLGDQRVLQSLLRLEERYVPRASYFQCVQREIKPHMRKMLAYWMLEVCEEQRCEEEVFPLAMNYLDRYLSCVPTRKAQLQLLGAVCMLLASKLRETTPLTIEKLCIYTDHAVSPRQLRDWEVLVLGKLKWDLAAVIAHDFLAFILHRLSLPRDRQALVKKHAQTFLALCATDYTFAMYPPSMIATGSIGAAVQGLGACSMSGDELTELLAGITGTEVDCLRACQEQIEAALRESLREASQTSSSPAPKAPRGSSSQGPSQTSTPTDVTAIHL
Test: Assay for inhibition of CDK6/CyclinD3 (Caliper microfluidic kinase assay)
Format: biochemical
Details: CDK6/CyclinD3, 300 μM ATP
pIC50: −log10 of the molar value.
Parameter pIC50: see the listing below.

Worked examples, 4 compounds total:
| compound | result |
| --- | --- |
| CC(C)c1cnn2ccc(-c3ccnc(Nc4ccc(C(N)=O)cc4)n3)cc12 | 7.00 to 8.00 |
| COc1nc(-c2nc(Nc3ccc(N4CCNCCC4=O)cn3)ncc2F)cc2c1nc(C)n2C(C)C | 7.00 to 8.00 |
| Cc1nc2c(F)nc(-c3ccnc(Nc4ccc(S(N)(=O)=O)cc4)n3)cc2n1C(C)C | 7.00 to 8.00 |
| COc1nc(-c2nc(Nc3ccc(N4CCN(C5COC5)CC4=O)cn3)ncc2F)cc2c1ncn2C(C)C | 7.00 to 8.00 |

Just so you know, measured pIC50 for CC1CN(c2ccc(Nc3ncc(F)c(-c4ccn5ncc(C(C)C)c5c4)n3)nc2)C(=O)CCN1 (stereo not shown) came out at 7.00 to 8.00

Sample CC(C)c1cnn2ccc(-c3nc(Nc4ccc(N5CC6CCC(CC5=O)N6)cn4)ncc3F)cc12 (stereo not shown) ; pIC50 observed: > 8.00

The compound CC(C)n1cnc2c(F)nc(-c3ccnc(Nc4ccc(N5CCC(N(C)C)CC5=O)cn4)n3)cc21 (stereo not shown) showed pIC50 equal to > 8.00

---

Measured IC50 accompanies every entry in the list below.
Test system: phosphorylation of Retinoblastoma Protein (pRb Ser807/811 or Ser780) in T47D cells
Test: Inhibition of phosphorylation of retinoblastoma protein (pRb) in T47D cell (ELISA)
Format: cell-based, human
Conditions: Homo sapiens, T47D, read-out: Phospho T47D Ser807 IC50, pRb Ser807 phosphorylation, T47D cells

Lab book: IC50 of CC(C)c1cnn2ccc(-c3ccnc(Nc4cnn(CC5CCNCC5)c4)n3)cc12 [compound 36] noted as 100 to 500 nM

For CNC1CCN(c2ccc(Nc3nccc(-c4ccn5ncc(C(C)C)c5c4)n3)nc2)C(=O)C1 (single isomer, unassigned) [Synthetic Example 205] the compound record lists IC50 as < 100 nM

Summary for this compound, CN(C)C1CCCN(c2ccc(Nc3nccc(-c4cc(F)c5c(c4)C(C)(C)CO5)n3)nc2)C1=O (stereo not shown) [compound 261] : IC50 is < 100 nM

Reported IC50 of CC(C)c1cnn2ccc(-c3ccnc(Nc4ccc(N5CCN(S(C)(=O)=O)CCC5=O)cn4)n3)cc12 [compound 236] : < 100 nM

---

Target: CDK4/CyclinD1 (Homo sapiens, UniProt P11802)
Construct: purchased Thermofisher PR8064A
Sequence (P11802 whole entry): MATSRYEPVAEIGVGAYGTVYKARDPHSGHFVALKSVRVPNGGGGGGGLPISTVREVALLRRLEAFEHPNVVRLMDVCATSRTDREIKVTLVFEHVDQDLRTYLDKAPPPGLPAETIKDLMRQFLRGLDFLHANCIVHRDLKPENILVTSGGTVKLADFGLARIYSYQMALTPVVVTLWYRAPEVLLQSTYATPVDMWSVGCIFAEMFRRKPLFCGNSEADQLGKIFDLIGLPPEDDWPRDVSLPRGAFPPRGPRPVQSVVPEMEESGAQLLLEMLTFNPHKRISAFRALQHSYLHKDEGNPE
Sequence (P24385 whole entry partner): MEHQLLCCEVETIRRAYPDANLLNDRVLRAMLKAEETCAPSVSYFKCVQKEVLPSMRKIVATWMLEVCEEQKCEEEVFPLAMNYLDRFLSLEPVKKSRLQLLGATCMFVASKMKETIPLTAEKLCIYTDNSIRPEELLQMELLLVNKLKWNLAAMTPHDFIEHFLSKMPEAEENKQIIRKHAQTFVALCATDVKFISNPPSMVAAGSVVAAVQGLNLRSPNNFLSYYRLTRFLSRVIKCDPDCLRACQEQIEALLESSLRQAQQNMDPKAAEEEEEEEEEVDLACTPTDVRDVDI
Assay: Assay for inhibition of CDK4/CyclinD1 (Caliper microfluidic kinase assay)
Type: biochemical
Conditions: CDK4/CyclinD1, 200 μM ATP
pIC50: −log10 of the molar value.
Some molecules, each annotated with its measured pIC50.

| molecule | pIC50 |
| --- | --- |
| CCN1CCN(c2ccc(Nc3nccc(-c4ccn5ncc(C(C)C)c5c4)n3)nc2)C(=O)C1 | > 8.00 |
| CC(C)c1cnn2ccc(-c3ccnc(Nc4ccc(N5CCC(C)(N)CC5=O)cn4)n3)cc12 (stereo not shown) | > 8.00 |
| CCN1CCN(c2ccc(Nc3nccc(N4CCc5ncn(C(C)C)c5C4)n3)nc2)C(=O)C1 | 7.00 to 8.00 |
| CC(C)n1cnc2c(F)nc(-c3ccnc(Nc4ccc(N5CCCNC5=O)cn4)n3)cc21 | > 8.00 |
| CC(C)c1cnn2ccc(-c3ccnc(Nc4ccc(N5CCNCC5=O)cc4)n3)cc12 | > 8.00 |
| CC(C)n1cnc2c(F)nc(-c3ccnc(Nc4ccc(N5CCCC(N(C)C)C5=O)cn4)n3)cc21 (stereo not shown) | > 8.00 |

Per the records, this molecule ( CCN1CCC(=O)N(c2ccc(Nc3ncc(F)c(-c4ccn5ncc(C(C)C)c5c4)n3)nc2)CC1 ) has pIC50 equal to > 8.00

# pIC50 (molecule: CCN1CCC(COc2cc(Nc3ncc(F)c(-c4ccn5ncc(C(C)C)c5c4)n3)ccn2)CC1 ) is > 8.00

Lookup result for CNC1CCCN(c2ccc(Nc3nccc(-c4ccn5ncc(C(C)C)c5c4)n3)cn2)C1=O (stereo not shown) ; measured pIC50: > 8.00

So, COc1nc(-c2ccnc(Nc3ccc4c(n3)CCN(C(=O)CN(C)C)C4)n2)cc2c1ncn2C(C)C [Synthetic Example 140] ? Its pIC50 was > 8.00

---

Target: CDK2/CyclinE1 (Homo sapiens, UniProt P24941)
Construct: purchased SignalChem C29-18G
Experiment: Assay for inhibition of CDK2/CyclinE1 (Caliper microfluidic kinase assay)
Format: biochemical
Conditions: CDK2/CyclinE1, 100 μM ATP; read-out: CDK2 IC50
pIC50: −log10 of the molar value.
assayMetric: pIC50

| compound | pIC50 |
| --- | --- |
| CC(C)c1cnn2ccc(-c3ccnc(Nc4ccc(N5CCCNC5=O)cc4)n3)cc12 | 7.00 to 8.00 |
| Cc1nn2ccc(-c3ccnc(Nc4ccc(N5CCNCC5=O)cn4)n3)cc2c1C(C)C | 7.00 to 8.00 |

Reported pIC50 (CDK2/CyclinE1 (Homo sapiens, UniProt P24941)) for entry CC(C)n1cnc2c(F)nc(-c3ccnc(Nc4ccc(S(N)(=O)=O)cc4)n3)cc21 is > 8.00

Tested on CDK2/CyclinE1 (Homo sapiens, UniProt P24941), the item CC(C)c1cnn2ccc(-c3ccnc(Nc4ccc(N5CCC(N(C)C)CC5=O)cc4)n3)cc12 (stereo not shown) showed pIC50 equal to > 8.00

Observed pIC50 on CDK2/CyclinE1 (Homo sapiens, UniProt P24941), entry COc1nc(-c2nc(Nc3ccc(N4CCNCCC4=O)cn3)ncc2F)cc2c1nc(C)n2C(C)C , equals < 6.00

Summary line: CC(C)c1cnn2ccc(-c3nc(Nc4ccc(N5CCN(C)CCC5=O)cn4)ncc3F)cc12 , CDK2/CyclinE1 (Homo sapiens, UniProt P24941), reported pIC50 = 7.00 to 8.00

// compound CC(C)N1CCN(c2ccc(Nc3nccc(-c4cc5c(ncn5C(C)C)c(F)n4)n3)nc2)CC1 [Synthetic Example 287] , assay CDK2/CyclinE1 (Homo sapiens, UniProt P24941), pIC50 value: 6.00 to 7.00

Measured pIC50 (CDK2/CyclinE1 (Homo sapiens, UniProt P24941)), entry CC(C)c1cnn2ccc(-c3nc(Nc4ccc(N5CCOCC5=O)cc4F)ncc3F)cc12 : > 8.00

Observed pIC50 on CDK2/CyclinE1 (Homo sapiens, UniProt P24941), entry CC(C)c1cnn2ccc(-c3ccnc(Nc4ccc(N5CCCC(N)C5=O)cc4)n3)cc12 (stereo not shown) , equals > 8.00

Tested on CDK2/CyclinE1 (Homo sapiens, UniProt P24941), the item CC1(C)COc2c(F)cc(-c3ccnc(Nc4ccc(N5CCCC(N)C5=O)cc4)n3)cc21 (stereo not shown) showed pIC50 equal to 7.00 to 8.00

Observed pIC50 on CDK2/CyclinE1 (Homo sapiens, UniProt P24941), entry CC(C)c1cnn2ccc(-c3ccnc(Nc4ccc(N5CCC(NCCF)CC5=O)cc4)n3)cc12 (stereo not shown) , equals > 8.00

The recorded pIC50 with CDK2/CyclinE1 (Homo sapiens, UniProt P24941) for CC(C)n1cnc2c(F)nc(-c3ccnc(Nc4ccc(N5CCC(N(C)C)CC5=O)cc4F)n3)cc21 (stereo not shown) was > 8.00

The value of pIC50 recorded for CC1(N)CCN(c2ccc(Nc3nccc(-c4cc(F)c5c(c4)C(C)(C)CO5)n3)nc2)C(=O)C1 (stereo not shown) when tested on CDK2/CyclinE1 (Homo sapiens, UniProt P24941) reads 7.00 to 8.00

Entry CC(C)c1cnn2ccc(-c3nc(Nc4ccc(N5CCOCC5=O)cc4)ncc3F)cc12 ; assay system CDK2/CyclinE1 (Homo sapiens, UniProt P24941); pIC50 recorded at > 8.00

For the compound CC(C)n1cnc2c(F)nc(-c3ccnc(Nc4ccc(N5CCN(CCF)CC5)cn4)n3)cc21 , the measured pIC50 on CDK2/CyclinE1 (Homo sapiens, UniProt P24941) was 6.00 to 7.00

Entry CC(C)n1cnc2c1CN(c1ccnc(Nc3ccc(N4CCCC(N)C4=O)cc3)n1)CC2 (stereo not shown) ; assay system CDK2/CyclinE1 (Homo sapiens, UniProt P24941); pIC50 recorded at 6.00 to 7.00
